Values were extracted from patent US20230381332A1.

METHOD: Clearance half-life test of deuterated camptothecin drugs in liver microsomes
Assay type: in vitro ADME, Human
CONDITION: human, 120 min, 10 μM
Measured Ratio of main drug after incubation by item
The reply should be a number in %, with the unit left off.

# annotated cases, reported Ratio of main drug after incubation shown
COMPOUND	Ratio of main drug after incubation [%]
[2H]C([2H])([2H])N(C(=O)CO)[C@@H]1CCc2c(C)c(F)cc3nc4c(c1c23)Cn1c-4cc2c(c1=O)COC(=O)[C@]2(O)CC [D-D15]	91
[2H]C(C)(O)C(=O)N[C@H]1CCc2c(C)c(F)cc3nc4c(c1c23)Cn1c-4cc2c(c1=O)COC(=O)[C@]2(O)CC (stereo partly drawn) [D-D3]	97
[2H]C([2H])([2H])C(O)C(=O)N(C)[C@@H]1CCc2c(C)c(F)cc3nc4c(c1c23)Cn1c-4cc2c(c1=O)COC(=O)[C@]2(O)CC (stereo partly drawn) [D-D19]	97
CC[C@@]1(O)C(=O)OCc2c1cc1n(c2=O)Cc2c-1nc1cc(F)c(C)c3c1c2[C@@H](NC(=O)[C@H](C)O)CC3 [Compound 3, reference compound]	56
[2H]C(O)(C(=O)N[C@H]1CCc2c(C)c(F)cc3nc4c(c1c23)Cn1c-4cc2c(c1=O)COC(=O)[C@]2(O)CC)C1CC1 (stereo partly drawn) [D-D7]	96

Q. # input compound: [2H]C(O)(C(=O)N[C@H]1CCc2c(C)c(F)cc3nc4c(c1c23)Cn1c-4cc2c(c1=O)COC(=O)[C@]2(O)CC)C(F)(F)F (stereo partly drawn) [D-D5] ; wanted: its Ratio of main drug after incubation
A. 99

Q. Which Ratio of main drug after incubation value is on record for [2H]C([2H])([2H])C([2H])(O)C(=O)N[C@H]1CCc2c(C)c(F)cc3nc4c(c1c23)Cn1c-4cc2c(c1=O)COC(=O)[C@]2(O)CC (stereo partly drawn) [D-D11] ?
A. 96

Q. GET /values?readout=Ratio of main drug after incubation&item= CC[C@@]1(O)C(=O)OCc2c1cc1n(c2=O)Cc2c-1nc1cc(F)c(C)c3c1c2[C@@H](NC(=O)[C@H](O)C(F)(F)F)CC3 [Compound 5, reference compound]
A. 73

Q. Quick one: Ratio of main drug after incubation of CC[C@@]1(O)C(=O)OCc2c1cc1n(c2=O)Cc2c-1nc1cc(F)c(C)c3c1c2[C@@H](NC(=O)[C@@H](O)C1CC1)CC3 [Compound 7, reference compound] ?
A. 85
